pIC50: −log10 of the molar value.
Reported pIC50 on HIV protease (Human immunodeficiency virus type 1 group M subtype B) for assorted molecules, compiled from publications.
PARAMETER: pIC50

Please review the following examples before continuing.
CC(C)CCN1C[C@@H](O)[C@H](Cc2ccccc2)NC(=O)[C@@H](NC(=O)OCc2ccccc2)CSCCCCCCNC1=O    5.76
CC(C)(C)S(=O)(=O)CC(Cc1cccc2ccccc12)C(=O)NCc1ccc2c(c1)C(O)C(O)c1cc(CNC(=O)C(Cc3cccc4ccccc34)CS(=O)(=O)C(C)(C)C)ccc1C2=O (centres unmarked)    5.70

A = CC(C)CN(C[C@@H](O)[C@H](Cc1ccccc1)NC(=O)[C@H](C)CS(=O)(=O)C[C@@H]1CCCN1)S(=O)(=O)c1ccc2c(c1)OCO2
B = CC(C)CCN(C[C@@H](O)[C@H](Cc1ccccc1)NC(=O)[C@@H](NC(=O)CNC(=O)OC(C)(C)C)C(C)(C)C)C(=O)NC(C)(C)C
IN: Kindly identify which of A and B has the larger recorded pIC50 value. // respond with label for picked entry
OUT: A
